target of assay: PI3Kδ (p110δ/p85α) Recombinant Human Protein (Homo sapiens (Human))
Sequence (O00329 whole entry): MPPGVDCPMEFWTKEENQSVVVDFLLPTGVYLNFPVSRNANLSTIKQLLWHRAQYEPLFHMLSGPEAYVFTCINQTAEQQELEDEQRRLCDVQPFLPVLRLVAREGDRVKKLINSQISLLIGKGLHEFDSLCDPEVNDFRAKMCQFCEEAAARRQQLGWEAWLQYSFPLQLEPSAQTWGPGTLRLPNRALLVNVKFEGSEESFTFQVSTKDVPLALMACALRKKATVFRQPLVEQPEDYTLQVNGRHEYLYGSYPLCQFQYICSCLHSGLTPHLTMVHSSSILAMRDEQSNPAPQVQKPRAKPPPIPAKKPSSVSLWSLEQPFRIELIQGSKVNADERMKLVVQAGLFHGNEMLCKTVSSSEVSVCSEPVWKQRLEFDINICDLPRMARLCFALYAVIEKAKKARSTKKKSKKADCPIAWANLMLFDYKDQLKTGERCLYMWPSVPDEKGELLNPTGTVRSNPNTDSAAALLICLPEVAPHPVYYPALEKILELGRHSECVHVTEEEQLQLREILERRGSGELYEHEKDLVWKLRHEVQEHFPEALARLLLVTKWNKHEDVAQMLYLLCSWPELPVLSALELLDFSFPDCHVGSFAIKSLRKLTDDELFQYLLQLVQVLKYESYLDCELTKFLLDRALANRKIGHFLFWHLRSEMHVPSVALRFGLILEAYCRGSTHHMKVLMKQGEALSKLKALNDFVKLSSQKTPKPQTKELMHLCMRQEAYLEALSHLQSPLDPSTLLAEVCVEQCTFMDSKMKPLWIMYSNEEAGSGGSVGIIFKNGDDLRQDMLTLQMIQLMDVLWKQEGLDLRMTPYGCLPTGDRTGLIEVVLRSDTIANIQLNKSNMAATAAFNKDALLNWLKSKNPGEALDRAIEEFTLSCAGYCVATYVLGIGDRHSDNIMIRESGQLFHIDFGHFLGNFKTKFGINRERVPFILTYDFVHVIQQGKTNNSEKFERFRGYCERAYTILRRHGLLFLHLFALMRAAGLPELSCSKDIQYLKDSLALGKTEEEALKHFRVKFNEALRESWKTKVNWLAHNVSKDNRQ
Sequence (P27986 whole entry partner): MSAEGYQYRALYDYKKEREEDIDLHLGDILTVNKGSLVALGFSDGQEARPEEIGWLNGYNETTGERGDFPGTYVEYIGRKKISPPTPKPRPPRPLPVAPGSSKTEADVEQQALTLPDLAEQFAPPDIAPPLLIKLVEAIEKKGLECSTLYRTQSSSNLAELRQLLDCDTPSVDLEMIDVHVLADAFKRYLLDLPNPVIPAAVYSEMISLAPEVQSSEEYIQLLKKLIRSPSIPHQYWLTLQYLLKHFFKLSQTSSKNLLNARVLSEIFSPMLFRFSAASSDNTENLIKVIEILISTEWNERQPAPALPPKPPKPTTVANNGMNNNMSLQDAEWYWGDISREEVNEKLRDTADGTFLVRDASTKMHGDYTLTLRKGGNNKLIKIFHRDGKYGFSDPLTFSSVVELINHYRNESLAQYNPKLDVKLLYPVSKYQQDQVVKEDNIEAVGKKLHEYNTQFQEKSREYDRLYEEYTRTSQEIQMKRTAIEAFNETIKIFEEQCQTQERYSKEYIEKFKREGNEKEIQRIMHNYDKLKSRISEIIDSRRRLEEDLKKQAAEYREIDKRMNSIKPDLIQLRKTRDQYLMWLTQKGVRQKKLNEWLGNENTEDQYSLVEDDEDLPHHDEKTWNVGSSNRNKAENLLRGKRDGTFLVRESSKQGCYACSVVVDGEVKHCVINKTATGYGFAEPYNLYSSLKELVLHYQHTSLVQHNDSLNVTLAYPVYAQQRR
experiment: PI3Kδ Scintillation Proximity Assay
condition summary: 20 μM PIP2, 2 μM ATP, 3.4 nM PI3Kδ, 120 min; read-out: PI3K-delta SPA IC50
pIC50: −log10 of the molar value.
result type: pIC50

Provide only the value of recorded pIC50 for CCS(=O)(=O)Nc1cncc(-c2ccc3nc(-c4nc5ccccc5[nH]4)oc3c2)c1 > 6.00
